target: WDR5 (Homo sapiens, UniProt P61964)
Construct: DNA fragment encoding amino acids 23 to 483 of WDR5 subcloned in the pET-28a plasmid; His6 (N); SUMO (N)
protocolNotes: Fluorescence polarization (FP) competitive binding assay
details: FP competitive assay vs fluorescently labeled tracer (2.5 nM), WDR5 5 nM, 0.2 M phosphate, 300 mM NaCl, 0.1% CHAPS, pH 6.5, 0.5 mM TCEP, 4 h incubation, 384-well plate; mean ± standard error, two independent experiments
Positions of bridges follow the written chain, without caps; N, C: chain ends. Residues, ends and D or L forms follow the SMILES beside them.
quantityName: EC50 (µM)

- compound: "CC(C)C[C@@H]1NC(=O)[C@H]([C@@H](C)O)NC(=O)[C@H](CCCNC(=N)N)NC(=O)[C@@H](N)CSSC[C@@H](C(=O)O)NC(=O)[C@H](C)NC(=O)CNC(=O)[C@H](Cc2ccc(O)cc2)NC(=O)[C@@H]2CCCN2C1=O [D206180] (H-CRTLPYGAC-OH; disulfide 1-9)"
  assayValue: 2.7
- compound: "CC(C)C[C@@H]1NC(=O)[C@H]([C@@H](C)O)NC(=O)[C@H](CCCNC(=N)N)NC(=O)[C@@H](N)CSSC[C@@H](C(=O)O)NC(=O)[C@H](CC(N)=O)NC(=O)[C@H](CC(N)=O)NC(=O)[C@H](Cc2c[nH]c3ccccc23)NC(=O)[C@@H]2CCCN2C1=O [D206179] (H-CRTLPWNNC-OH; disulfide 1-9)"
  assayValue: 2.3
- compound: "CC(C)C[C@@H]1NC(=O)[C@H]([C@@H](C)O)NC(=O)[C@H](CCCNC(=N)N)NC(=O)[C@@H](N)CSSC[C@@H](C(=O)O)NC(=O)[C@H](CCC(=O)O)NC(=O)[C@H](Cc2c[nH]cn2)NC(=O)[C@H](Cc2ccccc2)NC(=O)[C@@H]2CCCN2C1=O [D206115] (H-CRTLPFHEC-OH; disulfide 1-9)"
  assayValue: 5.9
- compound: "CC(C)C[C@@H]1NC(=O)[C@H]([C@@H](C)O)NC(=O)[C@H](CCCNC(=N)N)NC(=O)[C@@H](N)CSSC[C@@H](C(=O)O)NC(=O)[C@H](CO)NC(=O)CNC(=O)[C@H](Cc2ccccc2)NC(=O)[C@@H]2CCCN2C1=O [D206181] (H-CRTLPFGSC-OH; disulfide 1-9)"
  assayValue: 4.4

----------
Parameter pKi: see the listing below.
target: WDR5 (Homo sapiens, UniProt P61964)
pKi: −log10 of the molar value. Positions of bridges follow the written chain, without caps; N, C: chain ends. Residues, ends and D or L forms follow the SMILES beside them.
quantityName: pKi

- compound: "CC(C)C[C@@H]1NC(=O)[C@H]([C@@H](C)O)NC(=O)[C@H](CCCNC(=N)N)NC(=O)[C@@H](N)CSSC[C@@H](C(=O)O)NC(=O)[C@H](CO)NC(=O)CNC(=O)[C@H](Cc2ccccc2)NC(=O)[C@@H]2CCCN2C1=O [D206181] (H-CRTLPFGSC-OH; disulfide 1-9)"
  quantityName: "pKi"
  assayValue: 6.05
- compound: "CC(C)C[C@@H]1NC(=O)[C@H]([C@@H](C)O)NC(=O)[C@H](CCCNC(=N)N)NC(=O)[C@@H](N)CSSC[C@@H](C(=O)O)NC(=O)[C@H](CCC(=O)O)NC(=O)[C@H](Cc2c[nH]cn2)NC(=O)[C@H](Cc2ccccc2)NC(=O)[C@@H]2CCCN2C1=O [D206115] (H-CRTLPFHEC-OH; disulfide 1-9)"
  quantityName: "pKi"
  assayValue: 5.92
- compound: "CC(C)C[C@@H]1NC(=O)[C@H]([C@@H](C)O)NC(=O)[C@H](CCCNC(=N)N)NC(=O)[C@@H](N)CSSC[C@@H](C(=O)O)NC(=O)[C@H](CC(N)=O)NC(=O)[C@H](CC(N)=O)NC(=O)[C@H](Cc2c[nH]c3ccccc23)NC(=O)[C@@H]2CCCN2C1=O [D206179] (H-CRTLPWNNC-OH; disulfide 1-9)"
  quantityName: "pKi"
  assayValue: 6.30
- compound: "CC(C)C[C@@H]1NC(=O)[C@H]([C@@H](C)O)NC(=O)[C@H](CCCNC(=N)N)NC(=O)[C@@H](N)CSSC[C@@H](C(=O)O)NC(=O)[C@H](C)NC(=O)CNC(=O)[C@H](Cc2ccc(O)cc2)NC(=O)[C@@H]2CCCN2C1=O [D206180] (H-CRTLPYGAC-OH; disulfide 1-9)"
  quantityName: "pKi"
  assayValue: 6.30

Ref: paper PMC7956166
